B1: glmS ribozyme (parent)
chain: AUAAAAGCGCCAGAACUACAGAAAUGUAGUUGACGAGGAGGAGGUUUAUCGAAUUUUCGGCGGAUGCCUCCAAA

- Variants of: B1
- assayMethodText: self-cleavage kobs at 10000 uM GlcN6P; higher = faster cleavage; RNA array
- conditionNotes: with glucosamine-6-phosphate
Fewer inactive variants are shown than the library holds.
endpointLabel: self-cleavage kobs at 10000 uM GlcN6P (s⁻¹)
Value expressed in s⁻¹; do not type the unit.

The examples below pair each entry with its known result.
>>> assayresult("A52U U57A C71U")
0.00177
>>> assayresult("U45C U56C")
0.000319
>>> assayresult("A6U C71A")
"4.63e-05"
>>> assayresult("A12U A33U C67U")
0.000146

Switching to the query record.
Please list self-cleavage kobs at 10000 uM GlcN6P recorded for the variant G37A C71U
0.00225

// data source = the supplement of paper PMC7125110
